- system name: Pteridine reductase, putative (Trypanosoma brucei)
- Sequence (whole entry): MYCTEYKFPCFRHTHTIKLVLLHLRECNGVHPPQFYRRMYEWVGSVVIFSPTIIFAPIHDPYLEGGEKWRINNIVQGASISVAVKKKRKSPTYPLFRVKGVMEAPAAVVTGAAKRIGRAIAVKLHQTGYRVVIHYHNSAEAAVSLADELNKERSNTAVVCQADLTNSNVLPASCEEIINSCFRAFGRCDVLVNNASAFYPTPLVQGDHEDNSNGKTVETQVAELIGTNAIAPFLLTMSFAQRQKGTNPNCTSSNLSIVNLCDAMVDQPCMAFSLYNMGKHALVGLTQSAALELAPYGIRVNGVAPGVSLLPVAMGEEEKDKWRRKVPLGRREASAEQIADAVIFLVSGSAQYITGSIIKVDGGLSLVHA
- protocol details: Inhibition of Trypanosoma brucei pteridine reductase 1 at 100 uM
# inhibition values compiled below

# count of solved cases: 8
# compound, inhibition
measured = [
    ("CNc1nc(N)c(C(=O)C(C)(C)C)s1", "23%"),
    ("N#Cc1ccc(CSc2nnc(N)s2)cc1", "23.1%"),
    ("Cc1ccc(-c2n[nH]c(N)n2)cc1", "20.2%"),
    ("Nc1nc(-c2ccc(Br)cc2)n[nH]1", "-0.8%"),
    ("Cc1cc(C)n(-c2cc(=O)[nH]c(=O)[nH]2)n1", "-4%"),
    ("c1nc(NCC2CCCO2)c2nc[nH]c2n1 (centres undefined)", "25.1%"),
    ("Nc1nc(C2CCCCC2)n[nH]1", "45.1%"),
    ("Cc1ccc(CNc2n[nH]c(N)n2)cc1", "44.2%"),
]

Record Nc1nc(-c2ccc(O)cc2)cs1 : what is its inhibition with Pteridine reductase, putative (Trypanosoma brucei)?
43.2%

Lab note: need inhibition with Pteridine reductase, putative (Trypanosoma brucei) for entry CC(C)c1n[nH]c(N)n1 , please look it up.
3.9%

Identify the measured inhibition of O=C(Cc1ccccc1Cl)Nc1c[nH]c(=O)[nH]c1=O for Pteridine reductase, putative (Trypanosoma brucei).
21%

Give recorded inhibition with Pteridine reductase, putative (Trypanosoma brucei) for the following compound: CNc1nc(N)c(C(=O)c2ccccc2)s1
18.1%

Entry CCc1n[nH]c(N)n1 , system Pteridine reductase, putative (Trypanosoma brucei): what inhibition was measured?
-3.5%

Missing value: inhibition, Pteridine reductase, putative (Trypanosoma brucei), entry Cc1ccc(CSc2n[nH]c(N)n2)c(C)c1 . Fill in?
17.6%

---

- system name: Pteridine reductase, putative (Trypanosoma brucei)
- Sequence (Q581W1 whole entry): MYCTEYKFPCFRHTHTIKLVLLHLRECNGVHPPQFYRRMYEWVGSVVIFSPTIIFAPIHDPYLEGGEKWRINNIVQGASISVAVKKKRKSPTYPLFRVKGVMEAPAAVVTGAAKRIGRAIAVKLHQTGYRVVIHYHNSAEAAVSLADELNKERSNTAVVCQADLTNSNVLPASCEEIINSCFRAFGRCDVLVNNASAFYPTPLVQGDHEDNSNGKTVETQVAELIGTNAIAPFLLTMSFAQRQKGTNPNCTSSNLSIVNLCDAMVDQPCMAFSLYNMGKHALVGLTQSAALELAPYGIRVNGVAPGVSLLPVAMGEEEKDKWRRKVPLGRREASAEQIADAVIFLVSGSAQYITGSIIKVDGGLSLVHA
reported property: pKi
// scale note: pKi = -log10(conc_M); give the bare number

Some solved entries appear below for comparison.
# compound structure string, pKi
data = [
    ("Nc1nc2ccccc2[nH]1", 3.54),
    ("Nc1nc2cccc(-c3ccccc3)c2n1Cc1ccc(Cl)c(Cl)c1", 8.15),
    ("Nc1nc2cccc(Cl)c2n1Cc1ccc(Cl)c(Cl)c1", 6.29),
    ("Cc1cccc(-c2ccc3nc(N)[nH]c3c2)c1", 5.01),
    ("CCCOc1cccc2nc(N)n(Cc3ccc(Cl)c(Cl)c3)c12", 7.33),
]

Please look up its pKi: Nc1nc2ccc(C(=O)N3CCCCC3)cc2s1
3.85

What does the record list as pKi for COC(=O)c1ccc2nc(N)sc2c1 ?
4.68

Need pKi, item Nc1nc2ccccc2n1Cc1ccc(Cl)c(Cl)c1
6.40

For Nc1nc2ccc(Cl)cc2[nH]1 , what is its reported pKi?
4.97

Entry source: ChEMBL document CHEMBL1137778
